Cited source: paper PMC6920962

test system: Klebsiella pneumonia clinical isolate; conditions: 18 h
Ends that are not written are not given here.
endpointLabel: MIC K. pneumoniae Clinical Isolate (µM)
Respond numerically; units are µM and should not be typed.

Task item: Recorded MIC K. pneumoniae Clinical Isolate for ASWKVFLKNIGKAAGKAVLNSVTDMVNQ-NH2 [Dermaseptin-SP2] , please?
Reply: 10.71

Now look at this one.
Task item: Recorded MIC K. pneumoniae Clinical Isolate for SLWSSIKDMAAAAGRAALNAVNGILNP-NH2 [Dermaseptin-SP4] , please?
Reply: 189.00
